# TARGET SYSTEM: Tissue-type plasminogen activator (Homo sapiens, UniProt P00750)
# Sequence (P00750 whole entry): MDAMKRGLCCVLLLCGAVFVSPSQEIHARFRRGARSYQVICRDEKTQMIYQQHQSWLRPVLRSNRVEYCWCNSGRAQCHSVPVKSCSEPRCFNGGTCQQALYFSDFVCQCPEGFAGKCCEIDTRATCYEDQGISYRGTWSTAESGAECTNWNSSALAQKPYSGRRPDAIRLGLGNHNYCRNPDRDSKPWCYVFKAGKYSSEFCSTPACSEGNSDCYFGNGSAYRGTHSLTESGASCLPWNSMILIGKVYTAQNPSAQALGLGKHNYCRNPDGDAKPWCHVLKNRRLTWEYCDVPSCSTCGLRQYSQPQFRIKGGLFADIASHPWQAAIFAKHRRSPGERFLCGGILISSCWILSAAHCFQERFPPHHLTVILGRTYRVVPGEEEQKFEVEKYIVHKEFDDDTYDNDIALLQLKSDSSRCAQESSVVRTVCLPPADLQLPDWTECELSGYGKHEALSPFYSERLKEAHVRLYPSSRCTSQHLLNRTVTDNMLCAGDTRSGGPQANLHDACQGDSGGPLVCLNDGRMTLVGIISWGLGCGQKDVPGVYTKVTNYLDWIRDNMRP
# PROTOCOL DETAILS: Inhibition of human tissue plasminogen activator
MEASURED ATTRIBUTE: Ki

Suppose we examine the compound `COc1ccc(-n2nc(C(N)=O)c3c2C(=O)N(c2ccc(C(C)(C)CO)cc2)CC3)cc1` ; what Ki value has been reported? > 43 µM

###

# TARGET SYSTEM: Plasma kallikrein (Homo sapiens, UniProt P03952)
# Sequence (P03952 20-390 limits assumed): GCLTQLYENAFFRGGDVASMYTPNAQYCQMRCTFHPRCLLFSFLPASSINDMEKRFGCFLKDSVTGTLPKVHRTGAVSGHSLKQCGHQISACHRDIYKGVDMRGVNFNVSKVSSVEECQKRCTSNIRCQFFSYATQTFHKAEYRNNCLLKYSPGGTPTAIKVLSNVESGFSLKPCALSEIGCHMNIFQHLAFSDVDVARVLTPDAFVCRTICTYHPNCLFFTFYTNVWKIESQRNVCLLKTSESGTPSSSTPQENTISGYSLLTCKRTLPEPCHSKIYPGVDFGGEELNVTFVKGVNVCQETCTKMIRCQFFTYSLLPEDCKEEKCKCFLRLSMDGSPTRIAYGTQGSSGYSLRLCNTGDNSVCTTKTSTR
# Sequence (P03952 391-638 limits assumed): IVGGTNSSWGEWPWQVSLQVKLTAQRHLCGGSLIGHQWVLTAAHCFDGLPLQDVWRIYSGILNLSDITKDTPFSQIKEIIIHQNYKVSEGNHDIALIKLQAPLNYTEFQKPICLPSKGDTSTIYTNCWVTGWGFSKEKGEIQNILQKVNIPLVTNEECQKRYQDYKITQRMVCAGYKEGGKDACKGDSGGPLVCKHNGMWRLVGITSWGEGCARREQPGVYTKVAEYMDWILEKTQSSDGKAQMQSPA
# PROTOCOL DETAILS: Inhibition of human plasma kallikrein
MEASURED ATTRIBUTE: Ki

Kindly state the measured Ki obtained for `COc1ccc(-n2nc(C(N)=O)c3c2C(=O)N(c2ccc(C(C)(C)CO)cc2)CC3)cc1` with Plasma kallikrein (Homo sapiens, UniProt P03952). > 11 µM

###

# PROTOCOL DETAILS: Volume of distribution at steady state in dog at 0.5 mg/kg, iv and 0.2 mg/kg, po administered as cassette dosing
# Assay type: ADME, organism-based, Canis lupus familiaris
# CONDITION NOTES: in vivo, read-out: Vdss
Consider the following molecules; for each one, report its log10 of Vd.
The figures below represent log10 of Vd, where Vd is stated in L/kg.

// below: answered molecules
>  <MOL SMILES>
COc1ccc(-n2nc(C(N)=O)c3c2C(=O)N(c2ccc(C(C)(C)CN(C)C)cc2)CC3)cc1

>  <log10 of Vd>
0.82

$$$$
>  <MOL SMILES>
COc1ccc(-n2nc(C(N)=O)c3c2C(=O)N(c2ccc(N4CCCCC4=O)cc2)CC3)cc1

>  <log10 of Vd>
-0.70

$$$$
>  <MOL SMILES>
COc1ccc(-n2nc(C(N)=O)c3c2C(=O)N(c2ccc(C(C)(C)S(C)(=O)=O)cc2)CC3)cc1

>  <log10 of Vd>
-0.29

$$$$
>  <MOL SMILES>
COc1ccc(-n2nc(C(N)=O)c3c2C(=O)N(c2ccc(C(C)(C)CN4CCOCC4)cc2)CC3)cc1

>  <log10 of Vd>
0.70

$$$$
>  <MOL SMILES>
COc1ccc(-n2nc(C(N)=O)c3c2C(=O)N(c2ccc(C(C)(C)CO)cc2)CC3)cc1

>  <log10 of Vd>
0.48

$$$$
>  <MOL SMILES>
COc1ccc(-n2nc(C(N)=O)c3c2C(=O)N(c2ccc(C(C)(C)CN)cc2)CC3)cc1

>  <log10 of Vd>
1.07

$$$$

Take each entry in turn and give its log10 of Vd.
1. COc1ccc(-n2nc(C(N)=O)c3c2C(=O)N(c2ccc(C(C)(C)N4CCCC4)cc2)CC3)cc1
2. COc1ccc(-n2nc(S(C)(=O)=O)c3c2C(=O)N(c2ccc(C(C)(C)CN4CCCC4)cc2)CC3)cc1
3. COc1ccc(-n2nc(S(C)(=O)=O)c3c2C(=O)N(c2ccc(C(C)(C)CN(C)C)cc2)CC3)cc1
4. COc1ccc(-n2nc(S(C)(=O)=O)c3c2C(=O)N(c2ccc(C(C)(C)CN4CCOCC4)cc2)CC3)cc1

1.08
0.74
0.86
1.00

###

# PROTOCOL DETAILS: Inhibition of human factor 7a
MEASURED ATTRIBUTE: Ki

Suppose we examine the compound `COc1ccc(-n2nc(C(N)=O)c3c2C(=O)N(c2ccc(C(C)(C)CO)cc2)CC3)cc1` ; what Ki value has been reported? > 15 µM

###

# PROTOCOL DETAILS: Apparent permeability from apical to basolateral side of the human Caco2 cells
# Type: ADME, cell-based
# CONDITION NOTES: caco-2
MEASURED ATTRIBUTE: Papp (×10⁻⁶ cm/s)
Numbers only, in ×10⁻⁶ cm/s.

// below: answered compounds
>  <MOL SMILES>
COc1ccc(-n2nc(C(N)=O)c3c2C(=O)N(c2ccc(C(C)(C)CN4CCOCC4)cc2)CC3)cc1

>  <MEASUREMENT UNITS>
×10⁻⁶ cm/s

>  <Papp>
17

$$$$
>  <MOL SMILES>
COc1ccc(-n2nc(C(N)=O)c3c2C(=O)N(c2ccc(C(C)(C)CNC4CC4)cc2)CC3)cc1

>  <MEASUREMENT UNITS>
×10⁻⁶ cm/s

>  <Papp>
2.8

$$$$
>  <MOL SMILES>
COc1ccc(-n2nc(C(N)=O)c3c2C(=O)N(c2ccc(C(C)(C)CO)cc2)CC3)cc1

>  <MEASUREMENT UNITS>
×10⁻⁶ cm/s

>  <Papp>
5.8

$$$$
>  <MOL SMILES>
COc1ccc(-n2nc(C(N)=O)c3c2C(=O)N(c2ccc(C(C)(C)CN)cc2)CC3)cc1

>  <MEASUREMENT UNITS>
×10⁻⁶ cm/s

>  <Papp>
0.7

$$$$
>  <MOL SMILES>
COc1ccc(-n2nc(S(C)(=O)=O)c3c2C(=O)N(c2ccc(C(C)(C)CN4CCOCC4)cc2)CC3)cc1

>  <MEASUREMENT UNITS>
×10⁻⁶ cm/s

>  <Papp>
17

$$$$

Take each entry in turn and give its Papp.
1. COc1ccc(-n2nc(C(N)=O)c3c2C(=O)N(c2ccc(C(C)(C)CN(C)C)cc2)CC3)cc1
2. COc1ccc(-n2nc(S(C)(=O)=O)c3c2C(=O)N(c2ccc(C(C)(C)CN(C)C)cc2)CC3)cc1
3. COc1ccc(-n2nc(C(N)=O)c3c2C(=O)N(c2ccc(C(C)(C)C#N)cc2)CC3)cc1

1. 5.9
2. 4.1
3. 18

###

# PROTOCOL DETAILS: Clearance in dog at 0.5 mg/kg, iv and 0.2 mg/kg, po administered as cassette dosing
# Type: ADME, organism-based, Canis lupus familiaris
# CONDITION NOTES: in vivo
MEASURED ATTRIBUTE: log10 clearance (log10 of the value in mL/min/kg)
The figures below represent log10 of clearance, where clearance is stated in mL/min/kg.

// below: answered compounds
>  <MOL SMILES>
COc1ccc(-n2nc(C(N)=O)c3c2C(=O)N(c2ccc(C(C)(C)CO)cc2)CC3)cc1

>  <VALUE REPORTED>
1.21

$$$$
>  <MOL SMILES>
COc1ccc(-n2nc(C(N)=O)c3c2C(=O)N(c2ccc(C(C)(C)S(C)(=O)=O)cc2)CC3)cc1

>  <VALUE REPORTED>
0.73

$$$$
>  <MOL SMILES>
COc1ccc(-n2nc(S(C)(=O)=O)c3c2C(=O)N(c2ccc(C(C)(C)CN4CCCC4)cc2)CC3)cc1

>  <VALUE REPORTED>
1.56

$$$$

Take each entry in turn and give its log10 clearance.
1. COc1ccc(-n2nc(S(C)(=O)=O)c3c2C(=O)N(c2ccc(C(C)(C)CN4CCOCC4)cc2)CC3)cc1
2. COc1ccc(-n2nc(C(N)=O)c3c2C(=O)N(c2ccc(N4CCCCC4=O)cc2)CC3)cc1
3. COc1ccc(-n2nc(C(N)=O)c3c2C(=O)N(c2ccc(C(C)(C)CN(C)C)cc2)CC3)cc1

1. 1.33
2. -0.48
3. 1.92

###

# PROTOCOL DETAILS: Apparent permeability from apical to basolateral side of the human Caco2 cells
# Assay type: ADME, cell-based
# CONDITION NOTES: caco-2
Consider the following compounds; for each one, report its Papp.
Give bare numbers, in ×10⁻⁶ cm/s.

// below: answered compounds
>  <MOL SMILES>
COc1ccc(-n2nc(S(C)(=O)=O)c3c2C(=O)N(c2ccc(C(C)(C)CO)cc2)CC3)cc1

>  <MEASURED ATTRIBUTE>
Papp

>  <VALUE REPORTED>
3.6

$$$$
>  <MOL SMILES>
COc1ccc(-n2nc(C(N)=O)c3c2C(=O)N(c2ccc(C(C)(C)N4CCCC4)cc2)CC3)cc1

>  <MEASURED ATTRIBUTE>
Papp

>  <VALUE REPORTED>
1.7

$$$$

Now look at this entry.
Suppose we examine the compound `COc1ccc(-n2nc(C(N)=O)c3c2C(=O)N(c2ccc(C(C)(C)CN4CCCC4)cc2)CC3)cc1` ; what Papp value has been reported? 5.6

###

# PROTOCOL DETAILS: Clearance in dog at 0.5 mg/kg, iv and 0.2 mg/kg, po administered as cassette dosing
# Format: ADME, organism-based, Canis lupus familiaris
# CONDITION NOTES: in vivo
MEASURED ATTRIBUTE: clearance (mL/min/kg)
One number for each entry, in mL/min/kg.

// below: answered compounds
>  <MOL SMILES>
COc1ccc(-n2nc(C(N)=O)c3c2C(=O)N(c2ccc(C(C)(C)N4CCCC4)cc2)CC3)cc1

>  <VALUE REPORTED>
127

$$$$
>  <MOL SMILES>
COc1ccc(-n2nc(C(N)=O)c3c2C(=O)N(c2ccc(C(C)(C)CN)cc2)CC3)cc1

>  <VALUE REPORTED>
56

$$$$
>  <MOL SMILES>
COc1ccc(-n2nc(C(N)=O)c3c2C(=O)N(c2ccc(C(C)(C)CN4CCOCC4)cc2)CC3)cc1

>  <VALUE REPORTED>
29.3

$$$$

Now look at this entry.
Suppose we examine the compound `COc1ccc(-n2nc(S(C)(=O)=O)c3c2C(=O)N(c2ccc(C(C)(C)CN(C)C)cc2)CC3)cc1` ; what clearance value has been reported? 64.3
